System tested: T1, pwt1, unmodified CCR8 related peptide (human, none (non-sulfated Y15, Y16, Y17))
T1 construct: First 34 amino acids of human CCR8, synthetic; also called unmodified peptide
T1 sequence (peptide, as listed by the source): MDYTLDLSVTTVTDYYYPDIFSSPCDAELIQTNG
Protocol: ELISA on coated CCR8 peptide (500 ng/mL), OD [cont.]
Quantity name: binding result

• humanized anti-CCR8 mAb 2-14 (antibody, human IgG1, kappa, V domains shown, Humanized, human IgG1 / kappa) VH: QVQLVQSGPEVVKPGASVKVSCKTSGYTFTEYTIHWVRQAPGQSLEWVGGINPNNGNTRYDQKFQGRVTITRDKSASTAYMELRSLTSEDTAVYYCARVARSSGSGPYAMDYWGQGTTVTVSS VL: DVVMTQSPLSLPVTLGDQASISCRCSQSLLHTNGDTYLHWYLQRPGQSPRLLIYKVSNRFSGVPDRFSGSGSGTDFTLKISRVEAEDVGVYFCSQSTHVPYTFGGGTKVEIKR = binds
• anti-CCR8 mAb 2-8 (antibody, V domains shown) VH: QVQLKESGPGLVAPSQSLSITCTVSGFSLTDYGVSWIRQPPGKGPEWLGVIWGGGNTYYNSVLKSRLSISNDNSKSQVFLRMNSLQTADTAIYYCARPRRDYYALDYWGQGTSVTVAS VL: DVVMTQTPLSLPVSLGDQASISCRSSQSLVYTNGNTFLHWYLQKPGQSPKLLIYKVSNRFSGVPDRFSGSGSGTDFTLKISRVEAEDLGVYFCSQSTHVPPTFGGGTKLEIK = binds
• anti-CCR8 mAb 2-10 (antibody, V domains shown) VH: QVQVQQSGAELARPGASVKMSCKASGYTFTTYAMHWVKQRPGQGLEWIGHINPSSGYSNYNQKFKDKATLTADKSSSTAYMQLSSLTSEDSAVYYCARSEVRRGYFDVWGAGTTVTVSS VL: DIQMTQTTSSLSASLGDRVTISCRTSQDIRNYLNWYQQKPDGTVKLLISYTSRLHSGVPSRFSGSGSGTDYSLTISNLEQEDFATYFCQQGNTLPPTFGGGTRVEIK = binds
